Test system: biotinyl-Ile-oxazolone
protocol: self-aminoacylation, catalytic enhancement (BIO) (fold over background); higher = more active; k-Seq, kA / k0A0; sequences stand for … in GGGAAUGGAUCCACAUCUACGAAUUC…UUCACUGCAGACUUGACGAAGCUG
Fewer inactive variants are shown than the library holds.
Assign class by self-aminoacylation: not lower than 3 means 1; lower than 3 means -1.

Tell me whether self-aminoacylation is at least 3 here: AUUCACCUAGGGCAUCUGGUG [Fam2.2 aminoacylation ribozyme variant]
-1

Would you say AUGACACUGGUCAUCGAGUGA [Fam2.1 aminoacylation ribozyme variant] shows self-aminoacylation at minimum 3?
1

Has UAUACCCUGGUCAUCGAGUGA [Fam2.1 aminoacylation ribozyme variant] a recorded self-aminoacylation greater than or equal to 3?
1

Reported self-aminoacylation reaches at least 3 for CCACACUUCCAGCAAUCGAUC [Fam1B.1 aminoacylation ribozyme variant] ?
-1

Would you say AUUACCCUGGGCAUUGAGUGA [Fam2.1 aminoacylation ribozyme variant] shows self-aminoacylation at minimum 3?
1

---

System: biotinyl-Val-oxazolone
protocol: self-aminoacylation, catalytic enhancement (BVO) (fold over background); higher = more active; k-Seq, kA / k0A0; sequences stand for … in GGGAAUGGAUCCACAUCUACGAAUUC…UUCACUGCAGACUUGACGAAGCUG
This sample holds only a part of the variants without activity.
yes (1) means recorded self-aminoacylation is 1 or above; no (0) means it is below 1.

Quick check, self-aminoacylation >= 1? AUCAACCUGGUCAUCGAGUGA [Fam2.1 aminoacylation ribozyme variant]
yes (1)

Does the reported self-aminoacylation for AUUACACUGGUCAGCGAGUGA [Fam2.1 aminoacylation ribozyme variant] fall at or above the 1 mark?
yes (1)

Identify whether the reported self-aminoacylation of the following sequence is 1 or greater: ACGUUUGCUAAUAGUCGCGAG [Fam3.1 aminoacylation ribozyme variant]
yes (1)

Hi, just wondering whether CUACUUCAAUCAAUCGGUGUG [Fam1A.1 aminoacylation ribozyme variant] shows self-aminoacylation of 1 or higher.
yes (1)

Decide: self-aminoacylation of AUUCGCCUAGGUCAACGGGUG [Fam2.2 aminoacylation ribozyme variant] >= 1?
yes (1)

Would you say AUUCACCAAGGUGAUCGGGUG [Fam2.2 aminoacylation ribozyme variant] shows self-aminoacylation at minimum 1?
yes (1)

Can CCACACUUCAAGCAAUUGGUC [Fam1B.1 aminoacylation ribozyme variant] be said to have self-aminoacylation at or above 1?
no (0)

Is reported self-aminoacylation greater than or equal to 1 here: AAGCUUGCUAAUAGUCGCAAC [Fam3.1 aminoacylation ribozyme variant]
yes (1)

# bool: self-aminoacylation of AUUUCCCUGGUCAUCGAGUGU [Fam2.1 aminoacylation ribozyme variant] >= 1
yes (1)

API: above_or_equal(metric=self-aminoacylation, cutoff=1) for item AAUCACCUAGGUGAUCGGGUG [Fam2.2 aminoacylation ribozyme variant]
yes (1)

Could you tell me if the measured self-aminoacylation of AUACACCUAGGUCAUCGGAUG [Fam2.2 aminoacylation ribozyme variant] reaches 1 or more?
no (0)

Exam item: decide whether the reported self-aminoacylation for CCACGCUUUAAGCAAUCGGUC [Fam1B.1 aminoacylation ribozyme variant] is at least 1.
no (0)

Check the entry AUUAUCCUGGUCAUCGGGUGA [Fam2.1 aminoacylation ribozyme variant] : does self-aminoacylation equal or exceed 1?
yes (1)

Please indicate if the recorded self-aminoacylation for AUUACCCUGGUCAUGGGGUGA [Fam2.1 aminoacylation ribozyme variant] meets or exceeds 1.
yes (1)

Say whether CUACUCCAAACAAUCGGACUG [Fam1A.1 aminoacylation ribozyme variant] shows self-aminoacylation of 1 or more.
no (0)

hey, is self-aminoacylation for this one >= 1? AUUCACCUAGGUCCUCGGGUG [Fam2.2 aminoacylation ribozyme variant]
yes (1)

Determine whether this sequence has self-aminoacylation no lower than 1: CUACUUCAAACAAUAGGACUG [Fam1A.1 aminoacylation ribozyme variant]
no (0)

Quick check, self-aminoacylation >= 1? AGUCGCCUAGGUCAUCGGGUG [Fam2.2 aminoacylation ribozyme variant]
yes (1)

Hello, I need to know if AAGCUUGCUAAUAGUCGAAAG [Fam3.1 aminoacylation ribozyme variant] has measured self-aminoacylation not below 1. Thanks!
yes (1)

Please check the record AUUACCCCGGUCAUCGGGUGA [Fam2.1 aminoacylation ribozyme variant] and state if its self-aminoacylation is at or above 1.
yes (1)

Quick check: does CUACUUCGAACGAUCGGUCUG [Fam1A.1 aminoacylation ribozyme variant] have self-aminoacylation greater than or equal to 1?
yes (1)

Is reported self-aminoacylation greater than or equal to 1 here: CUACUUUAAACAAUCGGCCUG [Fam1A.1 aminoacylation ribozyme variant]
yes (1)

Please check the record CCACACUUCAAGCACUUGGUC [Fam1B.1 aminoacylation ribozyme variant] and state if its self-aminoacylation is at or above 1.
no (0)

Please indicate if the recorded self-aminoacylation for AAGUGUGCUGAUAGUCGCAAG [Fam3.1 aminoacylation ribozyme variant] meets or exceeds 1.
yes (1)

State whether the measured self-aminoacylation reaches 1, counting equality as reaching it, for AUUCACCUAGCUCAUCGGGUG [Fam2.2 aminoacylation ribozyme variant]
yes (1)

Determine whether measured self-aminoacylation meets or exceeds 1 for UCACAUUUCAAGCAAUCGGUC [Fam1B.1 aminoacylation ribozyme variant]
yes (1)

I'd appreciate it if you could say whether AAGUUUGCCAAUAUUCGCAAG [Fam3.1 aminoacylation ribozyme variant] has self-aminoacylation at least equal to 1.
yes (1)

Record AUUACCUUGGUCAUCGGGUGA [Fam2.1 aminoacylation ribozyme variant] ; criterion: self-aminoacylation no lower than 1. Met?
yes (1)

Please tell me: is the sequence AUUCACGUAGGUUAUCGGGUG [Fam2.2 aminoacylation ribozyme variant] at or over 1 in terms of self-aminoacylation?
yes (1)

Say whether AUUCACCUAGGCAAUCGGGUG [Fam2.2 aminoacylation ribozyme variant] shows self-aminoacylation of 1 or more.
yes (1)

Identify whether the reported self-aminoacylation of the following sequence is 1 or greater: AAUUUUGCUAAUCGUCGCAAG [Fam3.1 aminoacylation ribozyme variant]
yes (1)

Does the reported self-aminoacylation for CCAAUUCAAACAAUCGGUCUG [Fam1A.1 aminoacylation ribozyme variant] fall at or above the 1 mark?
yes (1)

API: above_or_equal(metric=self-aminoacylation, cutoff=1) for item AUUACCCUGGUCAUCGAGUAG [Fam2.1 aminoacylation ribozyme variant]
yes (1)

---

System: biotinyl-Met-oxazolone
protocol: self-aminoacylation, catalytic enhancement (BMO) (fold over background); higher = more active; k-Seq, kA / k0A0; sequences stand for … in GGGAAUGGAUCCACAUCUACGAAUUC…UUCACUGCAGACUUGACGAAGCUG
Variants at the floor of the assay were thinned out.
Cut-off 2 on self-aminoacylation, inclusive. At or above means MET; below means NOT MET.

Is the recorded value of self-aminoacylation equal to or greater than 2 for this sequence? AUUAACCUAGGUCAUCGGCUG [Fam2.2 aminoacylation ribozyme variant]
NOT MET

Reported self-aminoacylation reaches at least 2 for CUACUUCAAACUAUCGGUUUG [Fam1A.1 aminoacylation ribozyme variant] ?
NOT MET

Please indicate if the recorded self-aminoacylation for UUUACCCUGGUCAUCGAGUGG [Fam2.1 aminoacylation ribozyme variant] meets or exceeds 2.
MET

Say whether AUUCACCUAGGUCCUCGGGUG [Fam2.2 aminoacylation ribozyme variant] shows self-aminoacylation of 2 or more.
MET

Confirm if self-aminoacylation reported for the sequence AUUCACCUAGGUCUGCGGGUG [Fam2.2 aminoacylation ribozyme variant] is 2 or above.
MET

Say whether AAGUUUGCUAUUAGUCUCAAG [Fam3.1 aminoacylation ribozyme variant] shows self-aminoacylation of 2 or more.
NOT MET

Decide: is the reported value of self-aminoacylation for AUUCACCUGGGUCAUCGGGUU [Fam2.2 aminoacylation ribozyme variant] equal to or greater than 2?
MET

Answer whether self-aminoacylation of AUUACCCUGGUCAUCAUGUGA [Fam2.1 aminoacylation ribozyme variant] is greater than or equal to 2.
MET

Could you tell me if the measured self-aminoacylation of AUUCACCAAGGUCAUCGGGAG [Fam2.2 aminoacylation ribozyme variant] reaches 2 or more?
NOT MET

For this sequence, is measured self-aminoacylation 2 or higher? AUUCCCCUAUGUCAUCGGGUG [Fam2.2 aminoacylation ribozyme variant]
MET

Is it the case that AUGACACUGGUCAUCGAGUGA [Fam2.1 aminoacylation ribozyme variant] has self-aminoacylation reaching or exceeding 2?
MET

Identify whether the reported self-aminoacylation of the following sequence is 2 or greater: CGACACUUCAAGCAAUCGGUA [Fam1B.1 aminoacylation ribozyme variant]
NOT MET

Quick check: does CUACUUGAAACAAACGGUCUG [Fam1A.1 aminoacylation ribozyme variant] have self-aminoacylation greater than or equal to 2?
NOT MET

Hi team, for CUACUUCAUACAAUCGGUUUG [Fam1A.1 aminoacylation ribozyme variant] , is the recorded self-aminoacylation at or above 2?
NOT MET

Assess whether reported self-aminoacylation for AUUACCUUGGUCAUCGGGUGA [Fam2.1 aminoacylation ribozyme variant] sits at 2 or higher.
MET

# bool: self-aminoacylation of AUUCAGCUAGGUCACCGGGUG [Fam2.2 aminoacylation ribozyme variant] >= 2
MET

Is it the case that CUGCUUCCAACAAUCGGUCUG [Fam1A.1 aminoacylation ribozyme variant] has self-aminoacylation reaching or exceeding 2?
NOT MET

I'd appreciate it if you could say whether AUUACUCUGGUCAUCGUGUGA [Fam2.1 aminoacylation ribozyme variant] has self-aminoacylation at least equal to 2.
MET
